experiment: Compound was tested for the inhibition of influenza virus sialidase using 2'-(4-methylumbelliferyl)-N-acetylneuraminic acid substrate; set-up: species or system unidentified influenza virus

molecule | Ki [µM]
CC(=O)NC1C(O)CC(O)(C(=O)O)OC1[C@H](O)[C@H](O)CO (stereo not given in full) | 1000
CC(=O)N[C@@H]1C(NC(=N)N)C=C(C(=O)O)OC1[C@H](O)[C@H](O)CO (stereo not given in full) | 3e-05
CC(=O)N[C@H]1[C@H]([C@H](O)[C@H](O)CO)OC(C(=O)O)=C[C@H]1N | 0.04
CC(=O)NC1C(O)C=C(C(=O)O)OC1[C@H](O)[C@H](O)CO (stereo not given in full) | 4
CC(=O)N[C@@H]1C(N)C=C(C(=O)O)O[C@H]1[C@H](O)[C@H](O)CO (single isomer, unassigned) | 0.3

Source of measurements: ChEMBL document CHEMBL1129656
